Biological target: LNX1_1, Q8TBB1
Sequence (Q8TBB1 261-371): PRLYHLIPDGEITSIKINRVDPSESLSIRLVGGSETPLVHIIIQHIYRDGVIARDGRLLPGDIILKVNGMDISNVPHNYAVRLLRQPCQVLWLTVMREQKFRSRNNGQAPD
Assay: holdup assay
Design: key: below the threshold = too weak to quantify, mostly under pKd 3.1 to 4
Details: plain residues with an end cap or a label only (N-terminal biotin on a linker: ado-ado)
Quantity name: pKd

>>> recorded_value("TASPAKETSF [SLC2A7, Q6PXP3]")
"below the threshold"
>>> recorded_value("GQEEQVTTRL [TRPC5, Q9UL62]")
"below the threshold"
>>> recorded_value("VKPQVSESKL [ACOT8, O14734]")
"below the threshold"
>>> recorded_value("VNKSKLLTDV [KCNA1, Q09470]")
"below the threshold"
